- test description: Surrogate Activity-Based Plasma Stability Assay
- Type: in vitro ADME
- condition summary: rat, Surrogate activity-based Plasma stability t½
Where a SMILES comes first, the peptide text is derived from it. [ ]: non-standard residue; d: D form. 2Nal = N[C@@H](Cc1ccc2ccccc2c1)C(=O)O; pGlu = O=C1CC[C@@H](C(=O)O)N1; dNle = CCCC[C@@H](N)C(=O)O; Aib = CC(C)(N)C(=O)O
# maps each entry to its half-life
Quick reminder: number only, in h, skip the unit.

Some molecules with known half-life results, for comparison:
CCCC[C@@H](NC(=O)[C@@H]1CCCN1C(=O)CNC(=O)[C@H](CCCCN)NC(=O)[C@H](Cc1c[nH]cn1)NC(=O)[C@@H](C)NC(=O)[C@H](Cc1ccc2ccccc2c1)NC(=O)[C@H](CCCNC(=N)N)NC(=O)[C@@H]1CCCN1C(=O)[C@H](CCCNC(=N)N)NC(=O)[C@@H]1CCC(=O)N1)C(=O)N[C@H](C)C(=O)N[C@H](Cc1ccccc1)C(=O)O [Example 25, pE-R-P-R-(2-Nal)-a-H-K-G-P-nle-a-f-OH] ([pGlu]RPR[2Nal][dA]HKGP[dNle][dA][dF]-OH)
4.03
CCCC[C@@H](NC(=O)[C@@H]1CCCN1C(=O)CNC(=O)[C@H](CCCCN)NC(=O)C(C)(C)NC(=O)[C@H](CO)NC(=O)[C@H](CC(C)C)NC(=O)[C@H](CCCNC(=N)N)NC(=O)[C@@H]1CCCN1C(=O)[C@H](CCCNC(=N)N)NC(=O)[C@@H]1CCC(=O)N1)C(=O)N[C@H](C)C(=O)N[C@@H](Cc1ccccc1)C(=O)O [Example 37, pE-R-P-R-L-S-Aib-K-G-P-nle-a-F-OH] ([pGlu]RPRLS[Aib]KGP[dNle][dA]F-OH)
8.72

We now examine a further molecule.
Assign half-life to the following record: CCCC[C@@H](NC(=O)[C@@H]1CCCN1C(=O)CNC(=O)[C@H](CCCCN)NC(=O)[C@@H](Cc1c[nH]cn1)NC(=O)[C@H](CO)NC(=O)[C@H](CC(C)C)NC(=O)[C@H](CCCNC(=N)N)NC(=O)[C@@H]1CCCN1C(=O)[C@H](CCCNC(=N)N)NC(=O)[C@@H]1CCC(=O)N1)C(=O)N[C@H](C)C(=O)N[C@H](Cc1ccccc1)C(=O)O [Example 56, pE-R-P-R-L-S-h-K-G-P-nle-a-f-OH] ([pGlu]RPRLS[dH]KGP[dNle][dA][dF]-OH) 5.52
